Form field: IC50 (one value per entry).
# Method Summary: Cytotoxicity against human KKU-M214 cells assessed as reduction in cell viability after 72 hrs by SRB assay
# Type: functional, cell-based
# Condition Context: KKU-M214, 72 h

[
  {
    "Compound": "CCCCCCCCCCCCCCCC(=O)OC(CC1OC1(C)C)/C(C)=C/COc1ccc(CCNC(=O)c2ccccc2)cc1 (centres undefined)",
    "Unit Abbrev": "µM",
    "IC50": 14.9
  },
  {
    "Compound": "CCCCCCCCCCCCCC(=O)OC(CC(OC(C)=O)C(C)(C)O)/C(C)=C/COc1ccc(CCNC(=O)c2ccccc2)cc1 (racemic)",
    "Unit Abbrev": "µM",
    "IC50": 24
  },
  {
    "Compound": "CCCCCCCCCCCCCCCC(=O)OC(CC(O)/C(C)=C/COc1ccc(CCNC(=O)c2ccccc2)cc1)C(C)(C)O (racemic)",
    "Unit Abbrev": "µM",
    "IC50": 8.44
  },
  {
    "Compound": "O=c1[nH]cc(F)c(=O)[nH]1",
    "Unit Abbrev": "µM",
    "IC50": 3.76
  }
]
